This collection of values is drawn from ChEMBL document CHEMBL2163318.

test: Volume of distribution at steady state in rat at 0.67 mg/kg, iv; assay type: ADME, organism-based; design: dose 0.67 mg/kg, route intravenous; conditions: in vivo, read-out: Vdss
measured-property: Vd (L/kg)
Express your answer in L/kg, writing the number without its unit.

Fill blank: measured Vd of the compound CNc1cc(-c2nnc(NC(=O)[C@H](Cc3ccccc3)NCc3cscn3)s2)ccn1 is ____.
0.23

====

experiment: Metabolic stability of human microsomes assessed as compound turnover at 1 uM after 30 mins by LC-MS analysis; type: ADME, Microsome; settings: read-out: Drug metabolism
measured-property: metabolised at 0.5 h, 1 µM (%)
Enter your answer as a number in %; do not include the unit.

Example molecules with recorded metabolised at 0.5 h, 1 µM:
INSERT INTO results (cpd_smiles, measured_property, measurement) VALUES
  ('O=C(Nc1cc(-c2ccncc2)c[nH]c1=O)[C@H](Cc1ccccc1)NCc1ncccn1', 'metabolised at 0.5 h, 1 µM', 90),
  ('O=C(Nc1nnc(-c2ccncc2)s1)[C@H](Cc1ccccc1)NCc1cscn1', 'metabolised at 0.5 h, 1 µM', 14),
  ('O=C(Nc1cc(-c2ccncc2)c[nH]c1=O)[C@H](Cc1ccccc1)NC[C@H]1CCCO1', 'metabolised at 0.5 h, 1 µM', 83),
  ('Cc1cc(CN[C@@H](Cc2ccccc2)C(=O)Nc2cc(-c3ccncc3)c[nH]c2=O)no1', 'metabolised at 0.5 h, 1 µM', 78),
  ('C[C@H](N[C@@H](Cc1ccccc1)C(=O)Nc1cc(-c2ccncc2)c[nH]c1=O)c1ccccn1', 'metabolised at 0.5 h, 1 µM', 100),
  ('O=C(Nc1cc(-c2ccncc2)c[nH]c1=O)[C@H](Cc1ccccc1)NCc1ccccn1', 'metabolised at 0.5 h, 1 µM', 95),
  ('O=C(Nc1cc(-c2ccncc2)c[nH]c1=O)[C@H](Cc1ccccc1)NCc1cscn1', 'metabolised at 0.5 h, 1 µM', 68),
  ('Cn1ccc(CN[C@@H](Cc2ccccc2)C(=O)Nc2cc(-c3ccncc3)c[nH]c2=O)n1', 'metabolised at 0.5 h, 1 µM', 90);

# input for lookup
Param item = COc1ncc(-c2ccncc2)cc1NC(=O)[C@H](Cc1ccccc1)NC1(c2ccccn2)CC1 ; retrieve measured metabolised at 0.5 h, 1 µM.
15

====

experiment: AUC in rat at 0.67 mg/kg, iv; assay type: ADME, organism-based; design: dose 0.67 mg/kg, route intravenous; conditions: plasma
measured-property: AUC (ng·h/mL)
Answer with a number only, understood to be in ng·h/mL.

For the compound shown here, CNc1cc(-c2nnc(NC(=O)[C@H](Cc3ccccc3)NCc3cscn3)s2)ccn1 , give the reported AUC.
3030

====

Molecular target: Probable G-protein coupled receptor 142 (Homo sapiens)
Sequence (Q7Z601 whole entry): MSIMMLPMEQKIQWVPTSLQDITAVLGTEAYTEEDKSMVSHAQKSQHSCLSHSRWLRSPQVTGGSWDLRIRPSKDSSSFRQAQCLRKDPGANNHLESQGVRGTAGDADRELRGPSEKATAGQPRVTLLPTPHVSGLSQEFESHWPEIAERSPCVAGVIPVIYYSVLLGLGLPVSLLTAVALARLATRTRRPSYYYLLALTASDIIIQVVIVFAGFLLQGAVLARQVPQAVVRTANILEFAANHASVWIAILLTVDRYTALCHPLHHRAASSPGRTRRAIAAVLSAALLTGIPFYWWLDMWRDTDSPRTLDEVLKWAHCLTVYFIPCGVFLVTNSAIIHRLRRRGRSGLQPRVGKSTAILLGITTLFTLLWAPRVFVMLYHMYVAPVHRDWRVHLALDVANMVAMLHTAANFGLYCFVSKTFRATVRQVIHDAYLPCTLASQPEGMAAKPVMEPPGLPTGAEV
Experiment: Agonist activity at human GPR142 expressed in HEK293 cells assessed as inositol phosphate accumulation after 1 hr by scintillation counting
pEC50: −log10 of the molar value.
Tag: y if measured pEC50 is not below 6, n if it is.

// known answers, use as guide
INSERT INTO results (cpd_smiles, answer_label) VALUES
  ('O=C(Nc1cc(-c2ccncc2)c[nH]c1=O)[C@H](Cc1ccccc1)NCc1c[nH]cn1', 'y'),
  ('O=C1CC[C@H](CN[C@@H](Cc2ccccc2)C(=O)Nc2cc(-c3ccncc3)c[nH]c2=O)N1', 'n'),
  ('C[C@H](N[C@@H](Cc1ccccc1)C(=O)Nc1cc(-c2ccncc2)c[nH]c1=O)c1ccccn1', 'y'),
  ('O=C(Nc1cc(-c2ccncc2)c[nH]c1=O)[C@H](Cc1ccccc1)NCc1ccccn1', 'y'),
  ('O=C(Nc1cc(-c2ccncc2)c[nH]c1=O)[C@H](Cc1ccccc1)NC1(c2ccccn2)CC1', 'y');

Quick check: does O=C(Nc1nnc(-c2cncs2)s1)[C@H](Cc1ccccc1)NCc1cscn1 have pEC50 greater than or equal to 6?
y

Dear colleague, could you confirm whether CC(C)(N[C@@H](Cc1ccccc1)C(=O)Nc1cc(-c2ccncc2)c[nH]c1=O)c1ccccn1 has pEC50 at or above 6?
n

====

assay: Clearance in rat at 0.67 mg/kg, iv; assay type: ADME, organism-based; set-up: dose 0.67 mg/kg, route intravenous; settings: in vivo
measured-property: clearance (mL/min/kg)
Kindly answer with a numeric value in mL/min/kg, unit omitted.

Record request: clearance value, item CNc1cc(-c2nnc(NC(=O)[C@H](Cc3ccccc3)NCc3cscn3)s2)ccn1
3.83

====

assay: Volume of distribution at steady state in rat at 0.89 mg/kg, iv; type: ADME, organism-based; design: dose 0.89 mg/kg, route intravenous; details: in vivo, read-out: Vdss
measured-property: Vd (L/kg)
Respond with the bare value in L/kg.

Report Vd for O=C(Nc1cc(-c2ccncc2)c[nH]c1=O)[C@H](Cc1ccccc1)NC1(c2ccccn2)CC1 please.
1.1

====

biological target: Probable G-protein coupled receptor 142 (Homo sapiens); assay: Agonist activity at human GPR142 expressed in HEK293 cells assessed as inositol phosphate accumulation at 10 uM after 1 hr by scintillation counting; type: functional, cell-based
Under this convention, true (1) denotes Emax strictly below 90% and false (0) denotes Emax at or above 90%.

Known results for compounds:
INSERT INTO results (compound, answer_label) VALUES
  ('Cn1cncc1-c1nnc(NC(=O)[C@H](Cc2ccccc2)NCc2cscn2)s1', 'true (1)'),
  ('O=C(Nc1cc(-c2ccncc2)c[nH]c1=O)[C@H](Cc1ccccc1)NCc1ncccn1', 'false (0)'),
  ('O=C(Nc1nnc(-c2cncs2)s1)[C@H](Cc1ccccc1)NCc1cscn1', 'true (1)'),
  ('O=C(Nc1cc(-c2ccncc2)c[nH]c1=O)[C@H](Cc1ccccc1)NCc1ccccn1', 'false (0)'),
  ('O=C(Nc1cc(-c2ccncc2)c[nH]c1=O)[C@H](Cc1ccccc1)NC1(c2ccccn2)CC1', 'false (0)'),
  ('C[C@@H](N[C@@H](Cc1ccccc1)C(=O)Nc1cc(-c2ccncc2)c[nH]c1=O)c1ccccn1', 'true (1)'),
  ('O=C(Nc1nnc(-c2ccncc2)s1)[C@H](Cc1ccccc1)NCc1cscn1', 'false (0)'),
  ('CC(C)(N[C@@H](Cc1ccccc1)C(=O)Nc1cc(-c2ccncc2)c[nH]c1=O)c1ccccn1', 'true (1)');

Could you please tell me whether Emax recorded for COc1ncc(-c2ccncc2)cc1NC(=O)[C@H](Cc1ccccc1)NC1(c2ccccn2)CC1 is less than 90%?
false (0)

In the record for Cc1cc(CN[C@@H](Cc2ccccc2)C(=O)Nc2cc(-c3ccncc3)c[nH]c2=O)no1 , is Emax less than 90%?
false (0)

Determine whether this compound shows Emax lower than 90% (ties excluded): O=C(Nc1cc(-c2ccncc2)c[nH]c1=O)[C@H](Cc1ccccc1)NC1(c2ncccn2)CC1
false (0)

Please check: Emax for CCC(N[C@@H](Cc1ccccc1)C(=O)Nc1cc(-c2ccncc2)c[nH]c1=O)c1ccccn1 (mixture of isomers) , strictly under 90% or not?
true (1)

For this compound, is Emax lower than 90%? O=C1CC[C@H](CN[C@@H](Cc2ccccc2)C(=O)Nc2cc(-c3ccncc3)c[nH]c2=O)N1
true (1)

Please check: Emax for CN(C)CCn1cc(-c2ccncc2)cc(NC(=O)[C@H](Cc2ccccc2)NC2(c3ccccn3)CC2)c1=O , strictly under 90% or not?
false (0)

Is Emax of O=C(Nc1cc(-c2ccncc2)c[nH]c1=O)[C@H](Cc1ccccc1)NCCc1ccccn1 strictly below 90%?
true (1)

Record O=C(Nc1cc(-c2ccncc2)c[nH]c1=O)[C@H](Cc1ccccc1)NCCC1CCOCC1 : is its Emax strictly below 90%?
true (1)

====

assay: Metabolic stability of rat microsomes assessed as compound turnover at 1 uM after 30 mins by LC-MS analysis; assay type: ADME, Microsome; details: read-out: Drug metabolism
Items are presented alongside their recorded metabolised at 0.5 h, 1 µM.
# value in %; strip the unit string

INSERT INTO results (compound, measurement) VALUES
  ('O=C(Nc1cc(-c2ccncc2)c[nH]c1=O)[C@H](Cc1ccccc1)NCc1ccccn1', 95),
  ('Cc1nc(C2(N[C@@H](Cc3ccccc3)C(=O)Nc3cc(-c4ccncc4)c[nH]c3=O)CC2)cs1', 74),
  ('O=C(Nc1cc(-c2ccncc2)c[nH]c1=O)[C@H](Cc1ccccc1)NCC1CCS(=O)(=O)CC1', 58);

Look up metabolised at 0.5 h, 1 µM for this compound: CN(C)CCn1cc(-c2ccncc2)cc(NC(=O)[C@H](Cc2ccccc2)NC2(c3ccccn3)CC2)c1=O
22

Can you share its metabolised at 0.5 h, 1 µM? I mean this compound: O=C(Nc1cc(-c2ccncc2)c[nH]c1=O)[C@H](Cc1ccccc1)NC1(c2ccccn2)CC1
60

Request the reported metabolised at 0.5 h, 1 µM associated with O=C(Nc1cc(-c2ccncc2)c[nH]c1=O)[C@H](Cc1ccccc1)NCc1ncccn1
99

Find the recorded metabolised at 0.5 h, 1 µM belonging to CCC(N[C@@H](Cc1ccccc1)C(=O)Nc1cc(-c2ccncc2)c[nH]c1=O)c1ccccn1 (mixture of isomers) and report it.
95
